Source of measurements: PubChem BioAssay

assay: human hepatoma cell viability loss – ATP luminescence, cytotoxicity control for P. falciparum antimalarial project, primary screen (AID 2303); conditions: HepG2 viability, 24-48 h, at 10 µM, hits give high values;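 note: 0% = DMSO wells and 100% = digitonin-killed cells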
Give inhibition for every item shown.
Just the number in %, nothing appended.

*Q* Param item = "CCc1c[nH]c2c(N3CCCC3=O)cc(C(=O)N[C@@H](Cc3ccccc3)[C@H](O)CNC(C)(C)CCCC(C)C)cc12" ; retrieve measured inhibition.
*A* 22

*Q* Data request, read-out inhibition, for CC(C)c1ccc(OCC(O)CN(CCN2CCOCC2)C(=O)Nc2ccc(Br)cc2)cc1 (stereo not given)
*A* 6

*Q* # input compound: "CCCCCCN1CCN(Cc2cccc(NC(=O)c3cc4ccccc4s3)c2)CC1" ; wanted: its inhibition
*A* 20

*Q* Would you mind telling me what inhibition value was observed for "FC(F)(F)c1ccc2nc(-c3ccc(-c4cccc(CNCCN5CCNCC5)c4)s3)[nH]c2c1" ?
*A* 22

*Q* I would be grateful if you could share the reported inhibition for "COc1cc(OC)cc(-c2nn(-c3ccc([N+](=O)[O-])cc3Cl)c(=S)n2Cc2ccco2)c1" .
*A* 15

*Q* Dear colleague, I am looking for the recorded inhibition of the following compound: "CC1(C)N=C(N)N=C(N)N1OCC=Cc1ccccc1"
*A* 62

*Q* Which inhibition is reported for this compound? "CN(CCN(C)C(=O)NCc1ccccc1)C(=O)NCc1ccccc1"
*A* 2

*Q* Which inhibition value belongs to "Cc1cccc(OCC(=O)Nc2cccc(NC(=O)COc3cccc(C)c3)n2)c1" ?
*A* -3

*Q* Which value of inhibition has been reported for COc1ccc(NC(=O)NC2CCN(c3ccnc4cc(Cl)ccc34)C2)cc1 (stereo not given) in the records?
*A* 10

*Q* Requested field: inhibition. Item: "CS(=O)(=O)n1c(CN2CCN(c3ncc(C(F)(F)F)cc3Cl)CC2)nc2ccccc21"
*A* -2

====

test: antimalarial activity against Dd2 strain (AID 2302);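 note: 0% = DMSO untreated growth and 100% = chloroquine plus artemisinin killed control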; conditions: P. falciparum Dd2 in RBCs, LDH growth readout, 72 h; at 2 µM
Calls of active or inactive are those of the source.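 How the source made its calls: active means growth inhibition above 50% at the single 2 µM test dose, taken to imply half-maximal potency below 2 µM; inactive means the rest.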
Give one outcome, nothing more. List: 1 (active), 0 (inactive)

*Q* Which outcome was assigned to "CCN(CC)CCNc1nc(C=Cc2ccc(Cl)cc2)nc2cc3ccccc3cc12" in this test?
*A* 1

*Q* Short answer needed: outcome of this test for "COC(=O)C(=O)c1c(-c2ccccc2)c(-c2ccc(OC)c(OC)c2)c2c3cc(OC)c(OC)cc3ccn12" ?
*A* 1

*Q* Please share the test call associated with CCOC(=O)/C(=N\OC(C(=O)OC(C)(C)C)c1ccccc1)c1csc(NC(c2ccccc2)(c2ccccc2)c2ccccc2)n1 (centres undefined) .
*A* 1

*Q* Call for entry N#Cc1ccc2c(c1)CCN(CCC1CCC(NC(=O)c3cccc(-c4ccc(F)cc4)c3)CC1)CC2 (centres undefined) :
*A* 0

*Q* In this assay, the call recorded for CC(CN(C)C)C(=O)Nc1cccc(-c2ccc(-c3nc4ccccc4[nH]3)s2)c1 (centres undefined) was what?
*A* 0

*Q* What outcome does the record of this test show for "CC(=O)c1c(Nc2c(C)cc(C)cc2C)oc(C)cc1=O" ?
*A* 1

*Q* Recorded call for "Cc1ccc2c(O)c([N+](=O)[O-])c(=O)[nH]c2c1" ?
*A* 0

*Q* For "O=C(C=Cc1ccc([N+](=O)[O-])cc1)N1CCC(CCN2CCC(c3c[nH]c4ccccc34)CC2)CC1" , which call appears in the assay record?
*A* 0

*Q* Outcome logged for O=C(c1ccc(-c2cccc(-c3nc4ccc(C(F)(F)F)cc4[nH]3)c2)cc1)N1CCCCC1CN1CCC(O)C1 (centres undefined) in this assay:
*A* 1

*Q* Tell me the assay call for "OCC1CCN(Cc2ccc(-c3ccc(-c4nc5ccccc5[nH]4)cc3)cc2)CC1" please.
*A* 1

*Q* Which result was noted for this molecule in the test: "Nc1cccc(-c2ccc3ccnc(N)c3c2)c1"
*A* 1

*Q* What classification did "Cc1cccc2[nH]c(-c3ccc(-c4ccc(CN5CCN(C6CCN(C)CC6)CC5)cc4)cc3)nc12" end up with in this test?
*A* 1

*Q* Assay result, entry CCCCCN1CCCC(CNS(=O)(=O)c2ccc(C(=O)Nc3ccc(C(F)(F)F)cc3)cc2)C1 (centres undefined) — outcome?
*A* 0

*Q* Which outcome was assigned to "CCOc1ccc2c(NN=Cc3ccc(F)cc3)cc(C)nc2c1" in this test?
*A* 1

*Q* Can you look up the reported call for "CC(=O)NCCNc1cc(N2CCc3ncnc(Nc4ccc(OCc5c(F)cccc5F)c(Cl)c4)c3C2)ncn1" for me?
*A* 1

*Q* Per the assay record, what outcome was assigned to CC1CCCCN1CCCNc1nc(NCc2ccccc2)c2ccccc2n1 (centres undefined) ?
*A* 0

*Q* Hi, sorry to bother you, what did the test record for "O[C@@H](c1cccc(OCc2ccccc2)c1)[C@@H]1CN(CCc2ccccc2)CC[C@@]1(O)c1ccccc1" ?
*A* 1

*Q* Test call for this molecule, please: O=C(Nc1ccc(OC2CCN(Cc3ccsc3)C2)c(Cl)c1)c1ccc(F)cc1 (centres undefined)
*A* 1

*Q* I would be grateful if you could indicate the recorded call for CS(=O)(=O)Nc1ccc2[nH]cc(C3CCN(CC4CCC(NC(=O)/C=C/c5ccc(Cl)c(Cl)c5)CC4)CC3)c2n1 (centres undefined) .
*A* 0

====

Give measured inhibition for each item. Keep answers brief.
biological target: L-lactate dehydrogenase (Plasmodium falciparum (isolate CDC / Honduras)) (UniProt Q27743); assay: PfLDH activity inhibition – cell lysate, 3D7 strain, counter-screen for P. falciparum growth inhibition project (AID 2304);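 note: 0% = vehicle and 100% = reference inhibitor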; settings: P. falciparum 3D7 crude extract, LDH APAD/NBT absorbance; at 2 µM; hits give high values
Sequence (Q27743 whole entry, looked up): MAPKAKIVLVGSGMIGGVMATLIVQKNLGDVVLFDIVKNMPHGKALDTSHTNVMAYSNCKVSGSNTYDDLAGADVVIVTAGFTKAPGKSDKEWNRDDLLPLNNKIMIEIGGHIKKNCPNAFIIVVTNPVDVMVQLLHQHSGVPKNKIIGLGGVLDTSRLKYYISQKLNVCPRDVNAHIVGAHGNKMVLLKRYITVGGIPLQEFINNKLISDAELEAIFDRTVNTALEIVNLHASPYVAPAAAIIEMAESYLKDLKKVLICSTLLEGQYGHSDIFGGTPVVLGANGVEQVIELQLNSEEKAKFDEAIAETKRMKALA
Calls of active or inactive are those of the source. No rule for the calls is given here.

*Q* Provide value of inhibition for this record tested with L-lactate dehydrogenase (Plasmodium falciparum (isolate CDC / Honduras)) (UniProt Q27743): "CCCc1ccc(C(=O)N2[C@@H](c3nccs3)[C@@H](C(N)=O)C[C@@]2(CC(C)C)C(=O)O)cc1"
*A* 1% (inactive)

*Q* What is its inhibition for L-lactate dehydrogenase (Plasmodium falciparum (isolate CDC / Honduras)) (UniProt Q27743)? Entry: "O=C(/C=C/c1ccc(Cl)c(Cl)c1)NCCCCCN1CC[C@H](NC(=O)c2sc3ccccc3c2Cl)C1"
*A* -2% (inactive)

*Q* Enter reported inhibition observed with L-lactate dehydrogenase (Plasmodium falciparum (isolate CDC / Honduras)) (UniProt Q27743) for "CCCC(=O)c1cnc2c(I)cccc2c1Nc1ccccc1C"
*A* 4% (inactive)

*Q* Tell me reported inhibition for "COc1cc2ccccc2cc1CNCCCCCCNCc1cc2ccccc2cc1OC" , tested with L-lactate dehydrogenase (Plasmodium falciparum (isolate CDC / Honduras)) (UniProt Q27743).
*A* 6% (inactive)

*Q* Any idea what inhibition came out for CC(C)(C)COC(=O)c1ccc(NC(=O)N[C@@H](Cc2ccc(O)cc2)C(=O)NC2CCN(Cc3ccc(O)cc3)C2)cc1 (some centres undefined) on L-lactate dehydrogenase (Plasmodium falciparum (isolate CDC / Honduras)) (UniProt Q27743)?
*A* -1% (inactive)

*Q* Give the reported inhibition for "Cc1cccc2[nH]c(-c3cccc(-c4ccc(NC(=O)C(=O)c5cccn5C)cc4)c3)nc12" (system: L-lactate dehydrogenase (Plasmodium falciparum (isolate CDC / Honduras)) (UniProt Q27743)).
*A* -1% (inactive)

*Q* Report inhibition for CCCCCN1CCC(NC(=O)c2ccc(C(=O)Nc3ccc(C(C)C)cc3)cc2)C1 (centres undefined) tested on L-lactate dehydrogenase (Plasmodium falciparum (isolate CDC / Honduras)) (UniProt Q27743).
*A* 2% (inactive)

*Q* Give L-lactate dehydrogenase (Plasmodium falciparum (isolate CDC / Honduras)) (UniProt Q27743) inhibition for "Cc1c(C2CCN(CCCCNC(=O)c3ccc(-c4ccc(C#N)cc4)cc3)CC2)c2ccccc2n1CCO"
*A* 1% (inactive)

*Q* Query inhibition on L-lactate dehydrogenase (Plasmodium falciparum (isolate CDC / Honduras)) (UniProt Q27743) for "Cc1cc(N2CCCC2)nc(Nc2ccc(NC(=O)c3ccccc3)cc2)n1"
*A* -3% (inactive)

====

assay: antimalarial activity against Dd2 strain (AID 2302);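 note: 0% = DMSO untreated growth and 100% = chloroquine plus artemisinin killed control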; conditions: P. falciparum Dd2 in RBCs, LDH growth readout, 72 h; at 2 µM; hits give high values
Kindly state growth inhibition for each of the entries shown.
Response body: numeric value in %, unit text excluded.

*Q* Reported growth inhibition for "COc1ccc2c(NN=Cc3cccc([N+](=O)[O-])c3)ccnc2c1" : what is it?
*A* 99

*Q* If you can, please state the reported growth inhibition value of "CCOc1cc(C)ccc1C1CCN(CCCCNC(=O)c2ccc(-c3ccc(C(F)(F)F)cn3)cc2)CC1" .
*A* 45

*Q* Which growth inhibition value belongs to "COc1ccc2nc(C)cc(NN=Cc3ccccc3F)c2c1" ?
*A* 100

*Q* Look up growth inhibition: "CCc1ccc(NC(=O)c2ccc(CN3CCCN(Cc4cccc(C)c4)CC3)cc2)cc1"
*A* -4

*Q* Form field: reported growth inhibition of "CCCCCCNC(=O)c1nn(CCN2CCC(N3CCCC3)CC2)cc1-c1ccc(Cl)c(Cl)c1"
*A* 33

*Q* Looking for the measured growth inhibition of "Cc1ccc2cc(NC(=O)CCCCCCCON3C(N)=NC(N)=NC34CCCCC4)ccc2n1" , can you help?
*A* 86

*Q* Could you share which growth inhibition value was measured for "CCCN(CCC)C(=O)c1cc(C(=O)N[C@@H](Cc2ccccc2)[C@H](O)CNC(C)(C)c2cccc(OC)c2)cc(N2CCCCS2(=O)=O)c1" ?
*A* 74

*Q* Consider the compound shown here: "COc1cc2nc(-c3ccc(Br)cc3)cc(N)c2cc1OC" What is its recorded growth inhibition?
*A* 69

*Q* Returns the measured growth inhibition for the input compound. Input: "Cc1cccc2[nH]c(-c3cccc(-c4ccc(NC(=O)COc5ccccc5C(N)=O)cc4)c3)nc12"
*A* 47

*Q* Could you tell me which growth inhibition is on file for "CC(C)N1CCN(C(=O)c2ccc(CNCCCN3CCN(c4cccc(Cl)c4Cl)CC3)o2)CC1" ?
*A* 36

*Q* I have this compound here, CC1CCC2(CC1)N=C(N)N=C(N)N2OCc1cc2ccccc2c2ccccc12 (configuration not stated) , and I need its recorded growth inhibition.
*A* 41

*Q* Please give the measured growth inhibition for this compound: "CSc1cccc(NC(=O)c2cc3ccccc3oc2=O)c1"
*A* 75

*Q* What does the data say about its growth inhibition? Entry: "N#Cc1cc(C(=O)c2cc(Br)ccc2O)cn(-c2cc(Cl)cc(Cl)c2)c1=O"
*A* 35

*Q* Given the compound "O=C(/C=C/c1ccc(Cl)c(Cl)c1)NCCCCCN1CCC(NC(=S)Nc2ccc(Cl)c(Cl)c2)CC1" , what is its reported growth inhibition?
*A* 65

*Q* Please look up its growth inhibition: "O=C(Nc1cccc(CN2CCCN(Cc3ncc[nH]3)CC2)c1)c1ccc2ccccc2c1"
*A* 2

*Q* // returns reported growth inhibition for input "CC(C)CN(c1nc(C(=O)NNC(=O)[C@H](CC2CC2)NC(=O)c2cc3cc(OCCN4CCCCC4)ccc3o2)cs1)C1CC1"
*A* 98

*Q* # query: growth inhibition of entry "Cc1nc(N)nc(N)c1-c1ccc(Br)c([N+](=O)[O-])c1"
*A* 2

*Q* So what's the measured growth inhibition for this one? "Cc1noc(C)c1-c1ccc2c(Nc3ccc(C(F)(F)F)cc3)c(C(N)=O)cnc2c1"
*A* 95

*Q* I'd like to know its growth inhibition. The compound in question is "COc1ccc(C=CC(=O)NC(=O)c2ccccc2OC(=O)c2ccccc2)cc1OC"
*A* 90

*Q* Using the record for "O=S(=O)(c1ccccc1)n1ccc2cc(Nc3ncnc4cc(C#C[C@H]5CCCN5)sc34)ccc21" , report its growth inhibition.
*A* 56

*Q* Which growth inhibition value belongs to "Nc1nc(F)nc2nc[nH]c12" ?
*A* 25

*Q* Sample "COc1ccc2nccc([C@@H](O)CN3CCC(NC(=O)/C=C/c4ccc(F)c5ccccc45)CC3)c2c1" — what was its growth inhibition?
*A* 75

*Q* Query (compound): CCc1ccc(CN2CCC(NC(=O)c3cc(-c4ccc(N(C)C)cc4)cs3)C2)cc1 (configuration not stated) ; field requested: growth inhibition
*A* 7

*Q* Entry under review: "CC(C)c1cccc(C(C)C)c1NC(=O)NNC(=O)c1ccc(CCN2CCC(c3nc(COCC(F)(F)F)c(-c4ccc(F)cc4)o3)CC2)cc1" . Reported growth inhibition?
*A* 34

*Q* Returns the measured growth inhibition for the input compound. Input: "C=C1C[C@@H](n2cnc3c(NC(=O)c4ccccc4)ncnc32)[C@@H](F)[C@@H]1OC(c1ccccc1)(c1ccccc1)c1ccccc1"
*A* 97

*Q* # growth inhibition lookup, item Cn1c(=N)n(CC(=O)N2CCc3ccc(Cl)cc3C2Cc2ccc(Cl)c(Cl)c2)c2ccccc21 (configuration not stated)
*A* 52

*Q* # query: growth inhibition of entry "COc1cccc(NC(=O)c2nc(N3CCN(c4ccncc4)CC3)ccc2Cl)c1"
*A* 65

*Q* Reported growth inhibition for "Clc1ccc(Cc2nc3ccccc3[nH]2)cc1Cl" : what is it?
*A* 2

*Q* Any idea what its growth inhibition is? The compound is "O=C(Nc1ccc(C(=O)Nc2ccc(C3=NCCN3)cc2)cc1)Nc1ccc(C2=NCCN2)cc1"
*A* 95

*Q* Return reported growth inhibition; argument: "CC(C)c1ccc(C2CCN(CCCCNC(=O)c3ccc(NC(=O)c4ccc(C(F)(F)F)cc4)cc3)CC2)c(O)c1"
*A* 100

*Q* Quick one: growth inhibition for "CCCCOc1cc2[nH]cc(C(=O)OCC)c(=O)c2cc1OCCCC" ?
*A* 96

*Q* Consider the compound shown here: "Cc1nc(C(=O)N2CCCC[C@H]2CNC(=O)c2ccc(-c3ccc(N4CCCC4=O)cc3C)cc2)c(-c2ccc(F)cc2)s1" What is its recorded growth inhibition?
*A* 94

*Q* // lookup growth inhibition for "Cc1ccc(NS(=O)(=O)c2cccs2)cc1-c1cccc(C(=O)Nc2ccc(F)cc2)c1"
*A* 100

*Q* Quick one: growth inhibition of COC(=O)Nc1cc(C(F)(F)F)ccc1N1CCCC(NS(=O)(=O)c2ccc(C(C)(C)C)cc2)C1 (configuration not stated) ?
*A* 90

*Q* Look at this compound and give its reported growth inhibition. "COc1nc2c(CCN3CCC(NCc4ccc5c(c4)NC(=O)CO5)CC3)c(Cl)cnc2cc1F"
*A* 21

*Q* Returns the measured growth inhibition for the input compound. Input: Cc1ccc(C(=O)Nc2ccc(OC3CCN(CCC(C)C)C3)c(Cl)c2)cc1 (configuration not stated)
*A* 38

*Q* growth inhibition for "CC(C)COc1ccc(Cl)cc1Cc1ccc(-c2nc3ccc(C(F)(F)F)cc3[nH]2)o1" ?
*A* 51
